assay: Dynamic solubility evaluation in water and biological menstruums; type: physicochemical; details: water, 37 °C, water, thermodynamic from solid, H2O, 1 hour, 37° C., feeding 10 mg/mL; read-out: S: solubility
Where a name gives a salt, the structure may show the parent alone.
MEASUREMENT_LABEL: solubility at 1 h (µg/mL)

COMPOUND | OBSERVED_MEASUREMENT
CN(c1ncnc2[nH]ccc12)[C@@H]1CCc2cc(C#N)nn2C1 [Crystal form A of maleate] | 2900

###

assay: Pharmacokinetic (PK) test in mice; assay type: in vivo, mice (C57BL/6); conditions: mouse, plasma; male C57BL/6 mice; oral gavage 3 mg/kg vs iv 1 mg/kg

TEST_SMILES | ENDPOINT_UNIT | bioavailability
CN(c1ncnc2[nH]ccc12)[C@@H]1CCc2cc(C#N)nn2C1 | % | 88.4

###

experiment: Dynamic solubility evaluation in water and biological menstruums; type: physicochemical; conditions: SGF, 37 °C, simulated gastric fluid, thermodynamic from solid, SGF, 1 hour, 37° C., feeding 10 mg/mL; read-out: S: solubility
Where a name gives a salt, the structure may show the parent alone.

COMPOUND | solubility at 1 h
CN(c1ncnc2[nH]ccc12)[C@@H]1CCc2cc(C#N)nn2C1 [Crystal form A of maleate] | 6800 µg/mL

###

assay: Pharmacokinetic (PK) test in mice; type: in vivo, mice (C57BL/6); settings: mouse, plasma; male C57BL/6 mice; iv 1 mg/kg, oral gavage 3 mg/kg

TEST_SMILES | half-life
CN(c1ncnc2[nH]ccc12)[C@@H]1CCc2cc(C#N)nn2C1 | 1.89 h

###

assay: Pharmacokinetic (PK) test in mice; type: in vivo, mice (C57BL/6); details: mouse, plasma; male C57BL/6 mice; iv 1 mg/kg, oral gavage 3 mg/kg
MEASUREMENT_LABEL: AUC(0-inf) (µM·h)

TEST_SMILES | OBSERVED_MEASUREMENT
CN(c1ncnc2[nH]ccc12)[C@@H]1CCc2cc(C#N)nn2C1 | 12.8

###

biological target: JAK1(h) (Homo sapiens (Human), UniProt P23458)
Sequence (P23458 whole entry): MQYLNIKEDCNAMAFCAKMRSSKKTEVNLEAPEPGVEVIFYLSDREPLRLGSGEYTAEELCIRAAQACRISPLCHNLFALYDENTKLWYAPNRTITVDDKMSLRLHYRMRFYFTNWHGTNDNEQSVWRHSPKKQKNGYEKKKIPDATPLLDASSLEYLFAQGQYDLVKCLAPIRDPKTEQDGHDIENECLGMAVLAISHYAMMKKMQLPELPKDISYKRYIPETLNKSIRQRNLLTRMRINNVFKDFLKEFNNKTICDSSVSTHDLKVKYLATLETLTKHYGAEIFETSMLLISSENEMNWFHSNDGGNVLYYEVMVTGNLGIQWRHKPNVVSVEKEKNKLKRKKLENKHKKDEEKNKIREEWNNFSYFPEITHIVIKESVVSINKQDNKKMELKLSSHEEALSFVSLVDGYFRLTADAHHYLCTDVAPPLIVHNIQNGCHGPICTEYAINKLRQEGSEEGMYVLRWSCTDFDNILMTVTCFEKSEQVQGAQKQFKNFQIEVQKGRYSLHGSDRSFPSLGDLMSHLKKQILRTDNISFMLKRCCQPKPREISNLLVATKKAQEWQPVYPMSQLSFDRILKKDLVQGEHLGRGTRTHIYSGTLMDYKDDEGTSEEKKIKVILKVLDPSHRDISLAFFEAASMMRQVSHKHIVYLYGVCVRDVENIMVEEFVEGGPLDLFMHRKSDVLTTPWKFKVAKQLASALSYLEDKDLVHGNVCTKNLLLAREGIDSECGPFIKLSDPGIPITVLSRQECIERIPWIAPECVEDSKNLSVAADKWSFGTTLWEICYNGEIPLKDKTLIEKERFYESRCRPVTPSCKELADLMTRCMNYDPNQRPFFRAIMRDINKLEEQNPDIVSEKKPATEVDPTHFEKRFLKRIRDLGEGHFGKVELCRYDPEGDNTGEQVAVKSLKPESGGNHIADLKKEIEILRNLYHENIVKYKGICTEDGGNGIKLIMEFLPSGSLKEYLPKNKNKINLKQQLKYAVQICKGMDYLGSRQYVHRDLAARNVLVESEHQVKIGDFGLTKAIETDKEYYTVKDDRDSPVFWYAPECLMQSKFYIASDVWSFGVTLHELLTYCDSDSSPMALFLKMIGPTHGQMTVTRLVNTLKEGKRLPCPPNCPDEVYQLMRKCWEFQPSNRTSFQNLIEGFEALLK

TEST_SMILES | ENDPOINT_UNIT | IC50
CN(c1ncnc2[nH]ccc12)[C@@H]1CCc2cc(C#N)nn2C1 | nM | 1

###

assay: Basic pKa of the compound; assay type: physicochemical

TEST_SMILES | pKa
CN(c1ncnc2[nH]ccc12)[C@@H]1CCc2cc(C#N)nn2C1 | 4.47

###

test: Dynamic solubility evaluation in water and biological menstruums; format: physicochemical; conditions: water, 37 °C, water, thermodynamic from solid, H2O, 2 hours, 37° C., feeding 10 mg/mL; read-out: S: solubility
Counter-ions that a name gives are not always drawn.

MOLECULE | solubility at 2 h
CN(c1ncnc2[nH]ccc12)[C@@H]1CCc2cc(C#N)nn2C1 [Crystal form A of maleate] | 2800 µg/mL

###

target: UniProtKB O60674
Sequence (O60674 whole entry): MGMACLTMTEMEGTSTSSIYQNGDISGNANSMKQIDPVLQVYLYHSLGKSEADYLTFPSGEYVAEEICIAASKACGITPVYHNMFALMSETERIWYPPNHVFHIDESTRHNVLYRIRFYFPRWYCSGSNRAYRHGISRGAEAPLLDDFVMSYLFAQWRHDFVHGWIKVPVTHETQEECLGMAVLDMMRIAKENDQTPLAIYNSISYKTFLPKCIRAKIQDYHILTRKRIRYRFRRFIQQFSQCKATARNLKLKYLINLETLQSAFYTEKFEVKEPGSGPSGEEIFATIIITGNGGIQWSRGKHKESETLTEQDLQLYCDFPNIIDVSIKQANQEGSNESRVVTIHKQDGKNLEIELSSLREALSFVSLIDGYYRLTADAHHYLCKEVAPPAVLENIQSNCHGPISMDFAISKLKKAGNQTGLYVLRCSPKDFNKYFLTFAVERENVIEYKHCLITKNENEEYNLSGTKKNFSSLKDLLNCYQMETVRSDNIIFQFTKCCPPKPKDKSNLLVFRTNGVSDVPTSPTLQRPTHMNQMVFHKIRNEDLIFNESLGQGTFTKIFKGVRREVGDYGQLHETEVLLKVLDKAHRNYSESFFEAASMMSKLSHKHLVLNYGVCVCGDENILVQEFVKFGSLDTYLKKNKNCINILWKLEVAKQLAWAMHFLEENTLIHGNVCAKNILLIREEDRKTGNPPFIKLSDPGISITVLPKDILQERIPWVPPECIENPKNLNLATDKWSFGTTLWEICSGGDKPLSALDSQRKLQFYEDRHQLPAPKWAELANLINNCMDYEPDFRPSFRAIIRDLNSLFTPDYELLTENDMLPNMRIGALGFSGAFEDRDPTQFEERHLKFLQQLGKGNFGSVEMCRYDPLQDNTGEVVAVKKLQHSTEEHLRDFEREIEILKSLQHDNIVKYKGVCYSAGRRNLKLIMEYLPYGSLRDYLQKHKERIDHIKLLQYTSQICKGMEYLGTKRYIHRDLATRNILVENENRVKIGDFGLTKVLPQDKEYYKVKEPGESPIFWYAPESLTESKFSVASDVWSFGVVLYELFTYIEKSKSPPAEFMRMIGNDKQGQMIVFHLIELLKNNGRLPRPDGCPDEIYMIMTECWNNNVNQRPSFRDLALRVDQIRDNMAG
pIC50: −log10 of the molar value.
MEASUREMENT_LABEL: pIC50

TEST_SMILES | OBSERVED_MEASUREMENT
CN(c1ncnc2[nH]ccc12)[C@@H]1CCc2cc(C#N)nn2C1 | 8.10

###

assay: in vitro; conditions: human, Caco-2, pH 7.4
MEASUREMENT_LABEL: efflux ratio at 2 h, 2 μM

COMPOUND | OBSERVED_MEASUREMENT
CN(c1ncnc2[nH]ccc12)[C@@H]1CCc2cc(C#N)nn2C1 | 1.09
C[C@H]1O[C@@H](O[C@H]2[C@@H](O)C[C@H](O[C@H]3[C@@H](O)C[C@H](O[C@H]4CC[C@@]5(C)[C@H](CC[C@@H]6[C@@H]5C[C@@H](O)[C@]5(C)[C@@H](C7=CC(=O)OC7)CC[C@]65O)C4)O[C@@H]3C)O[C@@H]2C)C[C@H](O)[C@@H]1O [Digoxin] | 349

Measured values drawn from patent US20240002404A1 for this set.
